So I've got a bunch of compounds here, and I need their NF-κB assay % surv. values.
- Test system: human embryonic kidney 293 cells (HEK293)
- assayNotes: Cell survival in the NF-κB assay
- Type: cell-based
- reportedConditions: human, 6 h, 50 µM
Supply the numeric figure in %, leaving out any unit text.

INPUT: If you can, please state the reported NF-κB assay % surv. value of CC(=O)OC1C[C@H](OC(C)=O)CC2=CCC3C4CCC([C@@](C)(O)[C@@H](C[C@@H]5COC(=O)[C@@]5(C)O)OC(C)=O)[C@@]4(C)CCC3[C@]21C (some centres unmarked) .
OUTPUT: 21.8

INPUT: If you can, please state the reported NF-κB assay % surv. value of CC1=C(C)C(=O)OC([C@](C)(O)[C@]2(O)CC[C@@]3(O)C4C[C@@H](O)C5=CC=CC(=O)[C@]5(C)C4CC[C@]23C)C1 (some centres unmarked) .
OUTPUT: 100.0

INPUT: If you can, please state the reported NF-κB assay % surv. value of CC(=O)O[C@@H]1CC2C(CC[C@]3(C)[C@](O)([C@@](C)(O)C4CC(C)=C(C)C(=O)O4)CC[C@@]23O)[C@@]2(C)C(=O)C=CC=C12 (some centres unmarked) [Compound 5a, withaperuvin C acetate] .
OUTPUT: 47.0

INPUT: If you can, please state the reported NF-κB assay % surv. value of CC1=C(C)C(=O)OC(C(C)(O)C2(O)CCC3(O)C4CC(Cl)C5(O)C(O)C=CC(=O)C5(C)C4CCC32C)C1 (centres unmarked) .
OUTPUT: 100.0

INPUT: If you can, please state the reported NF-κB assay % surv. value of CC(=O)OC1C=CC(=O)C2(C)C3CCC4(C)C(O)(CCC4(O)C(C)(O)C4CC(C)=C(C)C(=O)O4)C3CC(Cl)C12O (centres unmarked) .
OUTPUT: 12.3

INPUT: If you can, please state the reported NF-κB assay % surv. value of CC1=C(C)C(=O)OC([C@](C)(O)[C@]2(O)CC[C@@]3(O)C4C[C@H]5O[C@]56[C@@H](O)C=CC(=O)[C@]6(C)C4CC[C@]23C)C1 (stereo partly drawn) [Compound 3, 4β-hydroxywithanolide E] .
OUTPUT: 88.6

INPUT: If you can, please state the reported NF-κB assay % surv. value of CC1=C(C)C(=O)OC(C(C)(O)C2(O)CC(O)C3(O)C4CC(O)C5(O)CC=CC(=O)C5(C)C4CCC32C)C1 (centres unmarked) .
OUTPUT: 82.2

INPUT: If you can, please state the reported NF-κB assay % surv. value of CC1=C(CO)CC(C(C)(O)C2(O)CCC3(O)C4CC(O)C5(O)CC=CC(=O)C5(C)C4CCC32C)OC1=O (centres unmarked) [Compound 7, phyperunolide B] .
OUTPUT: 81.6

INPUT: If you can, please state the reported NF-κB assay % surv. value of CC(=O)OC1C[C@H](O)CC2=CCC3C4CCC([C@@](C)(O)[C@H](O)C[C@@H]5COC(=O)[C@@]5(C)O)[C@@]4(C)CCC3[C@]21C (some centres unmarked) .
OUTPUT: 36.5

INPUT: If you can, please state the reported NF-κB assay % surv. value of CC1=C(C)C(=O)OC(C(C)(O)C2(O)CCC3(O)C4CC(O)C5(O)C(O)C(O)CC(=O)C5(C)C4CCC32C)C1 (centres unmarked) .
OUTPUT: 100

INPUT: If you can, please state the reported NF-κB assay % surv. value of CC(=O)O[C@H]1C=CC(=O)[C@]2(C)C3CC[C@]4(C)[C@](O)([C@@](C)(O)C5CC(C)=C(C)C(=O)O5)CC[C@@]4(O)C3C[C@H]3O[C@]132 (some centres unmarked) .
OUTPUT: 2.2
